Assay: The drug is tested on the gut metagenome community of A-01 with ENA study accession number: PRJEB31790 for biotransformation under anaerobic condition. The drug concentrations were measured over 7 timepoints collected between 0 and 12 hours of incubation by liquid-chromatography-coupled mass spectrometry (LC–MS)
Format: ADME
Set-up: dose 5 uM, timepoint 0, 0.75, 1.5, 3, 6, 9, 12 hours
Conditions: 5 µM
RECORDED_ENDPOINT: Bacterial Biotransformation

Here's what some known entries look like.
• CCOC(=O)[C@H](CCc1ccccc1)N[C@@H](C)C(=O)N1[C@H](C(=O)O)C[C@@H]2CCC[C@@H]21 = Compound NOT metabolized
• C[C@]12C=CC(=O)C=C1CC[C@@H]1[C@@H]2[C@@H](O)C[C@@]2(C)[C@H]1CC[C@]2(O)C(=O)CO [PREDNISOLONE] = Compound metabolized
• NS(=O)(=O)c1cc(C(=O)O)c(NCc2ccco2)cc1Cl [FUROSEMIDE] = Compound NOT metabolized
• C[C@@H](NCCCc1cccc(C(F)(F)F)c1)c1cccc2ccccc12 = Compound NOT metabolized
• COc1c(C)c2c(c(O)c1C/C=C(\C)CCC(=O)OCCN1CCOCC1)C(=O)OC2 [MYCOPHENOLATE MOFETIL] = Compound metabolized
• CCCC1O[C@@H]2C[C@H]3[C@@H]4CCC5=CC(=O)C=C[C@]5(C)[C@H]4[C@@H](O)C[C@]3(C)[C@]2(C(=O)CO)O1 (stereo not given in full) [BUDESONIDE] = Compound NOT metabolized
• C[C@]12CCC(=O)C=C1CC[C@@H]1[C@@H]2[C@@H](O)C[C@@]2(C)[C@H]1CC[C@]2(O)C(=O)CO [HYDROCORTISONE] = Compound metabolized
• CCOC(=O)C1=C(COCCN)NC(C)=C(C(=O)OC)C1c1ccccc1Cl (stereo not given) [AMLODIPINE] = Compound NOT metabolized
• C=CC[C@@H]1/C=C(\C)C[C@H](C)C[C@H](OC)[C@H]2O[C@@](O)(C(=O)C(=O)N3CCCC[C@H]3C(=O)O[C@H](/C(C)=C/[C@@H]3CC[C@@H](O)[C@H](OC)C3)[C@H](C)[C@@H](O)CC1=O)[C@H](C)C[C@@H]2OC.O [TACROLIMUS] = Compound NOT metabolized
• C[C@]12CCC(=O)C=C1CC[C@@H]1[C@@H]2C(=O)C[C@@]2(C)[C@H]1CC[C@]2(O)C(=O)CO [CORTISONE] = Compound metabolized

Reported Bacterial Biotransformation for C[C@H]1C[C@H]2[C@@H]3CCC4=CC(=O)C=C[C@]4(C)[C@@]3(F)[C@@H](O)C[C@]2(C)[C@@]1(O)C(=O)CO [BETAMETHASONE] was Compound NOT metabolized

Reported Bacterial Biotransformation for Cn1cnc([N+](=O)[O-])c1Sc1ncnc2nc[nH]c12 [AZATHIOPRINE] was Compound NOT metabolized

Reported Bacterial Biotransformation for COc1ccc([C@@H]2Sc3ccccc3N(CCN(C)C)C(=O)[C@@H]2OC(C)=O)cc1 [DILTIAZEM] was Compound metabolized

Reported Bacterial Biotransformation for `CCOc1nc2cccc(C(=O)O)c2n1Cc1ccc(-c2ccccc2-c2nnn[nH]2)cc1` was Compound NOT metabolized

Reported Bacterial Biotransformation for C[C@]12C=CC(=O)C=C1CC[C@@H]1[C@@H]2C(=O)C[C@@]2(C)[C@H]1CC[C@]2(O)C(=O)CO [PREDNISONE] was Compound metabolized
